Item-by-item account of IC50
Tested on: MOLT-4 cells
Assay: MOLT-4 cell viability, MTT assay
Format: cell-based
Conditions: Homo sapiens, MOLT-4, 48 h

COMPOUND	SYSTEM	IC50
Cc1c(Nc2nc3ccccc3s2)nnc2c1CCCN2c1ccc(-c2cnn(CC34CC5(C)CC(C)(C3)CC(OCCN(C)CCOCCOCCOCCOCCOCCNc3cccc6c3C(=O)N(C3CCC(=O)NC3=O)C6=O)(C5)C4)c2C)c(C(=O)O)n1 (stereo not drawn)	MOLT-4 cells	13.5 nM
Cc1ncsc1-c1ccc(CNC(=O)[C@@H]2CC(O)CN2C(=O)C(NC(=O)CCCCC(=O)N2CCN(CCOC34CC5(C)CC(C)(CC(Cn6ncc(-c7ccc(N8CCCc9c8nnc(Nc8nc%10ccccc%10s8)c9C)nc7C(=O)O)c6C)(C5)C3)C4)CC2)C(C)(C)C)cc1 (stereo in doubt)	MOLT-4 cells	10.5 nM
Cc1ncsc1-c1ccc([C@H](C)NC(=O)[C@@H]2C[C@@H](O)CN2C(=O)[C@@H](NC(=O)CCCCCCCN(C)CCOC23CC4(C)CC(C)(CC(Cn5ncc(-c6ccc(N7CCCc8c7nnc(Nc7nc9ccccc9s7)c8C)nc6C(=O)O)c5C)(C4)C2)C3)C(C)(C)C)cc1	MOLT-4 cells	6.57 nM
Cc1cc(N(CCCCCn2cc(COCCOCCOCCNC(=O)COc3cccc4c3C(=O)N(C3CCC(=O)NC3=O)C4=O)nn2)c2ccc(-c3cnn(CC45CC6(C)CC(C)(C4)CC(OCCN(C)C)(C6)C5)c3C)c(C(=O)O)n2)nnc1Nc1nc2ccccc2s1 (stereo not drawn)	MOLT-4 cells	86.4 nM
Cc1c(Nc2nc3ccccc3s2)nnc2c1CCCN2c1ccc(-c2cnn(CC34CC5(C)CC(C)(C3)CC(OCCN(C)CCCCCCCCCCOc3ccc6c(c3)C(=O)N(C3CCC(=O)NC3=O)C6=O)(C5)C4)c2C)c(C(=O)O)n1 (stereo not drawn)	MOLT-4 cells	0.717 nM
Cc1cc(N(CCCCCn2cc(COCCOCCNc3cccc4c3C(=O)N(C3CCC(=O)NC3=O)C4=O)nn2)c2ccc(-c3cnn(CC45CC6(C)CC(C)(C4)CC(OCCN(C)C)(C6)C5)c3C)c(C(=O)O)n2)nnc1Nc1nc2ccccc2s1 (stereo not drawn)	MOLT-4 cells	16.4 nM

Sample Cc1ncsc1-c1ccc(CNC(=O)[C@@H]2C[C@@H](O)CN2C(=O)[C@@H](NC(=O)C2(F)CC2)C(C)(C)C)c(OCCCCCCCCN(C)CCOC23CC4(C)CC(C)(CC(Cn5ncc(-c6ccc(N7CCCc8c7nnc(Nc7nc9ccccc9s7)c8C)nc6C(=O)O)c5C)(C4)C2)C3)c1 — what was its IC50? 3.31 nM
